# TGT: LC3B WT (rat LC3B 1-120) (rat, UniProt Q62625 1-120)
# TEST_METHOD_NOTES: ITC; peptide in the syringe (0.5 mM) titrated into 200 µl of the Atg8 homologue in the cell at a 10 times lower concentration; MicroCal iTC200, 25 °C, stirring at 1000 rpm; single-site binding model; N fixed to 1.0 when the fitting was not convergent due to weak interaction; errors are fitting errors
# CONDITION: both partners purified
PROPERTY_LABEL: Kd (µM)
One number for each entry, in µM.

(Q) State the recorded Kd for this entry: GPHSSGNGNDFEMITKEELEQQTDY [SEC62355-376 WT peptide]
(A) 3.37

Data provenance: paper PMC7335187
